Target: NaV1.6 (Homo sapiens (Human))
Assay: Sodium Influx Assay (Flux), NaV1.6
Settings: read-out: Flux NaV1.6 IC50; Trex HEK293 cells, ANG2 dye; arithmetic mean
pIC50: −log10 of the molar value.
measure: pIC50

> print(dat)
                                   compound  measure  assayresult
1  Cc1c(N(C)[C@H]2CCN(Cc3cc(F)ccc3F)C2)ccc(S(=O)(=O)Nc2cscn2)c1F [Example 322, 2,2,2-trifluoroacetate]    pIC50         6.63

P: Cc1cccc(CN2CC[C@@H](Nc3cc(F)c(S(=O)(=O)Nc4nccs4)cc3Cl)C2)c1 [Example 88]
Q: O=S(=O)(Nc1nccs1)c1ccc(OC2CCN(Cc3ccncc3)CC2)c(Cl)c1 [Example 63]
R: Cc1cc(S(=O)(=O)Nc2cscn2)c(F)cc1N(C)[C@H]1CCN(Cc2ccnn2CC(F)(F)F)C1 [Example 108]
S: O=S(=O)(Nc1nccs1)c1cc(Cl)c(N[C@H]2CCN(Cc3ccccc3)C2)cc1F [Example 87]
QUERY: Sort (4 compounds) by pIC50: min first. # list labels per requested ordering
RESULT: Q, R, S, P
(Q: 4.56, R: 5.26, S: 6.13, P: 6.42)

###

Target: NaV1.1 (Homo sapiens (Human), UniProt P35498)
Assay: Sodium Influx Assay (Flux), NaV1.1
Type: cell-based
Conditions: Trex HEK293 cells, ANG2 dye; arithmetic mean
Structures can show the parent of a compound that is named as a salt.
measure: IC50 (µM)

> print(dat)
                                   compound  readoutunit  assayresult
1  Cc1c(N(C)[C@H]2CCN(Cc3cc(F)ccc3F)C2)ccc(S(=O)(=O)Nc2cscn2)c1F [Example 322, 2,2,2-trifluoroacetate]           µM         6.02
2  CN(c1cc(F)c(S(=O)(=O)Nc2cscn2)cc1Cl)[C@H]1CCN(Cc2cccc3cccnc23)C1 [Example 170, formate]           µM         11.3
3  O=S(=O)(Nc1cscn1)c1cc(Cl)c(N[C@@H]2CCN(Cc3ccccc3)C2)cc1F           µM         8.29
4  CN(c1cc(F)c(S(=O)(=O)Nc2cscn2)c(F)c1)[C@H]1CCN(Cc2cccc(C(F)F)c2)C1 [Example 287, 2,2,2-trifluoroacetate]           µM         7.81
5  Cc1cc(S(=O)(=O)Nc2cscn2)c(F)cc1N(C)[C@H]1CCN(Cc2ccccc2C(F)F)C1           µM          4.6

A: Cc1ccc(F)c(CN2CC[C@H](N(C)c3cc(F)c(S(=O)(=O)Nc4cscn4)cc3Cl)C2)c1 [Example 172, 2,2,2-trifluoroacetate]
B: Cc1ccc(F)c(CN2CC[C@H](N(C)c3ccc(S(=O)(=O)Nc4ncns4)cc3Cl)C2)c1
QUERY: Smaller IC50 value, A vs B ? To answer, give the label that identifies your chosen option.
RESULT: A
(A: 5.45 µM, B: 15.9 µM)

###

Molecular target: NaV1.6 (Homo sapiens (Human), UniProt Q9UQD0)
Experiment: Sodium Influx Assay (Flux), NaV1.6
Settings: read-out: Flux NaV1.6 IC50; Trex HEK293 cells, ANG2 dye; arithmetic mean
Structures can show the parent of a compound that is named as a salt.
measure: IC50 (nM)

1: CN(c1cc(F)c(S(=O)(=O)Nc2cscn2)cc1Cl)[C@H]1CCN(Cc2cccc(OC(F)F)c2)C1 [Example 168, formate]
2: Cc1ccccc1CN1CC[C@H](N(C)c2cc(F)c(S(=O)(=O)Nc3cscn3)cc2C)C1
QUERY: Which record would sort first by descending IC50, 1 or 2 ? Pick one; state its label.
RESULT: 1

P: O=S(=O)(Nc1cscn1)c1c(F)cc(O[C@H]2CCN(Cc3ccccc3)C2)c(Cl)c1F [Example 268, hydrochloride]
Q: Cc1cccc(CN2CC[C@H](N(C)c3cc(F)c(S(=O)(=O)Nc4cscn4)c(F)c3Cl)C2)n1
R: CCCc1ccc(CN2CC[C@H](N(C)c3cc(F)c(S(=O)(=O)Nc4cscn4)cc3Cl)C2)cc1
S: Cc1c(OC2CCN(Cc3ccccc3)CC2)ccc(S(=O)(=O)Nc2cscn2)c1F [Example 299, hydrochloride]
QUERY: Rank items: key IC50, increasing. Write the labels out in the order the request specifies.
RESULT: Q, S, R, P
(Q: 182 nM, S: 324 nM, R: 1860 nM, P: 4920 nM)

###

Target: NaV1.6 (Homo sapiens (Human), UniProt Q9UQD0)
Experiment: Sodium Influx Assay (Flux), NaV1.6
Details: read-out: Flux NaV1.6 IC50; Trex HEK293 cells, ANG2 dye; arithmetic mean
pIC50: −log10 of the molar value.
measure: pIC50

Below, 2 compounds whose answers are already recorded.
> print(dat)
                                   compound                                    target  assayresult
1  O=S(=O)(Nc1nccs1)c1ccc(O[C@@H]2C[C@H]3CC[C@@H](C2)N3Cc2ccccc2)c(Cl)c1  NaV1.6 (Homo sapiens (Human), UniProt Q9UQD0)         6.37
2  Cc1cc(S(=O)(=O)Nc2cscn2)c(F)cc1N[C@H]1CCN(Cc2ccccc2)C1 [Example 288, 2,2,2-trifluoroacetate]  NaV1.6 (Homo sapiens (Human), UniProt Q9UQD0)         5.36

a: CC1(Oc2ccc(S(=O)(=O)Nc3nccs3)cc2Cl)CCN(Cc2ccccc2)CC1
b: O=S(=O)(Nc1ncns1)c1ccc(O[C@@H]2CCN(Cc3ccccc3)C2)c(Cl)c1 [Example 96, 2,2,2-trifluoroacetate]
QUERY: Larger number for pIC50: a , or b ? I would appreciate it if you answered with the label of your choice.
RESULT: a

###

Molecular target: NaV1.5 (Homo sapiens (Human))
Sequence (Q14524 other isoform, or with tags, fused parts or gaps): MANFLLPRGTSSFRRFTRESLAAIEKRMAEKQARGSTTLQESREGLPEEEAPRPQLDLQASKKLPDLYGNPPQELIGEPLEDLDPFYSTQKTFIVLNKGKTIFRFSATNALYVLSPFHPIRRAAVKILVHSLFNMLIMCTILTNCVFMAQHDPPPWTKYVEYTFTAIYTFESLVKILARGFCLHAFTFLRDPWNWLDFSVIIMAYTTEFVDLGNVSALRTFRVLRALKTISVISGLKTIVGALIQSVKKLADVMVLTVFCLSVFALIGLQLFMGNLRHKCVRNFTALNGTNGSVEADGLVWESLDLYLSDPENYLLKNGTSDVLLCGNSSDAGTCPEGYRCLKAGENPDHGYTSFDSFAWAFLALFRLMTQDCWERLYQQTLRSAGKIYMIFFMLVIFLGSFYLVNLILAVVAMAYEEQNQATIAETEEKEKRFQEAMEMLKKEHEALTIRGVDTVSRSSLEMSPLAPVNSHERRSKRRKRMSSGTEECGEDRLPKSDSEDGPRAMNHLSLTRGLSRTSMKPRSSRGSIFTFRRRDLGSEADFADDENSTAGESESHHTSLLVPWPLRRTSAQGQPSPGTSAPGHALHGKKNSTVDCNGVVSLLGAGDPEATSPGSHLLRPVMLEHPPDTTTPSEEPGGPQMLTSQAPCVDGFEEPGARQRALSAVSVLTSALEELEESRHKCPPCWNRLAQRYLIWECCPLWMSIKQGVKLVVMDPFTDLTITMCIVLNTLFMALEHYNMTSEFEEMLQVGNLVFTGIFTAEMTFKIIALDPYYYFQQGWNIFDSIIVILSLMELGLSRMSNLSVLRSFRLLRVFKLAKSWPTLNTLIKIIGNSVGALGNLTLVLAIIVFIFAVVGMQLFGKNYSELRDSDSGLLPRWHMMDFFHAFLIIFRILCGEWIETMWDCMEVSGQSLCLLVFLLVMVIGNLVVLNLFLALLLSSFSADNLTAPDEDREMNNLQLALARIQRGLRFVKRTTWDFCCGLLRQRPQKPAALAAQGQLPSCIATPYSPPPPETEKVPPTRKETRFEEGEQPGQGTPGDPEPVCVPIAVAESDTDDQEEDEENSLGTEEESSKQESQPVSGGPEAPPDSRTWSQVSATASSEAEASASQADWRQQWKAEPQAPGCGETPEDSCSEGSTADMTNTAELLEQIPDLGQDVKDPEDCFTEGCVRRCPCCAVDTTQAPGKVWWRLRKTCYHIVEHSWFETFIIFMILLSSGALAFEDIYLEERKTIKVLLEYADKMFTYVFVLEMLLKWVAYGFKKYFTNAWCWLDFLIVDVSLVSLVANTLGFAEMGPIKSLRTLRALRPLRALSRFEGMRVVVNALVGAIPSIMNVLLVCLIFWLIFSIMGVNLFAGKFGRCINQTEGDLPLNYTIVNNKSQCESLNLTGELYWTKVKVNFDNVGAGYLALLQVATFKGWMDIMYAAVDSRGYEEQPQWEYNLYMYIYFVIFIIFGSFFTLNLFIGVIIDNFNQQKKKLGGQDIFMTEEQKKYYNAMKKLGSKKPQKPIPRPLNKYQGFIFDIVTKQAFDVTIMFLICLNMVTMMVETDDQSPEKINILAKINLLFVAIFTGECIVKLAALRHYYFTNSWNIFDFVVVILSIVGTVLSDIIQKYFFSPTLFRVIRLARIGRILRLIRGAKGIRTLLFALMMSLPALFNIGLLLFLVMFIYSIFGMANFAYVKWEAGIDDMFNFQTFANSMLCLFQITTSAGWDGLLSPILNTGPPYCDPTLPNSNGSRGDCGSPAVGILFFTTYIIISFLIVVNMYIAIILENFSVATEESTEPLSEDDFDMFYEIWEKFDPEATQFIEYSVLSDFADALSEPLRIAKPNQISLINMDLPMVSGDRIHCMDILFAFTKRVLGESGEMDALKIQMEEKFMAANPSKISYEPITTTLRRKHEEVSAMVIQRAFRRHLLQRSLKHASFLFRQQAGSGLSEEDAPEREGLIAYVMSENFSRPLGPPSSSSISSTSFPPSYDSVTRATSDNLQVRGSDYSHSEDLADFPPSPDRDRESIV
Test: Sodium Influx Assay (Flux), NaV1.5
Conditions: read-out: Flux NaV1.5 IC50; Trex HEK293 cells, ANG2 dye; arithmetic mean
Counter-ions that a name gives are not always drawn.
measure: pIC50
In plain terms, pIC50 is the concentration in mol/L turned into minus its base-10 logarithm.

Consider the reported pIC50 for these compounds:
> print(dat)
                                   compound  assayresult
1  CN(c1cc(F)c(S(=O)(=O)Nc2cscn2)cc1Cl)[C@H]1CCN([C@@H]2CCc3ccccc32)C1 [Example 246, 2,2,2-trifluoroacetate]         4.73
2  Cc1cccc(CN2CC[C@H](Nc3cc(F)c(S(=O)(=O)Nc4nccs4)cc3Cl)C2)c1         4.90
3  COc1ccc(CN2CCC(Oc3ccc(S(=O)(=O)Nc4nccs4)cc3Cl)CC2)cc1         5.11
4  CC[C@H](c1ccccc1)N1CC[C@H](N(C)c2cc(F)c(S(=O)(=O)Nc3cscn3)cc2Cl)C1         4.59
5  Cc1cc(S(=O)(=O)Nc2cscn2)c(F)cc1N(C)[C@H]1CCN(C2Cc3ccccc3C2)C1         5.04
6  C[C@@]1(Nc2ccc(S(=O)(=O)Nc3cscn3)cc2Cl)CCN(Cc2ccccc2)C1 [Example 225, formate]         5.26

For the next question, use this compound.
QUERY: For the compound Cc1ccccc1CN1CCC(Oc2ccc(S(=O)(=O)Nc3nccs3)cc2Cl)CC1 , give its measured pIC50 value.
RESULT: 5.16

###

Biological target: NaV1.6 (Homo sapiens (Human))
Experiment: Sodium Influx Assay (Flux), NaV1.6
Settings: read-out: Flux NaV1.6 IC50; Trex HEK293 cells, ANG2 dye; arithmetic mean
Structures can show the parent of a compound that is named as a salt.
measure: IC50 (nM)

P: Cc1nc(CN2CC[C@H](N(C)c3cc(F)c(S(=O)(=O)Nc4cscn4)cc3C)C2)c(C)o1 [Example 245, 2,2,2-trifluoroacetate]
Q: CC1(Nc2ccc(S(=O)(=O)Nc3nccs3)cc2Cl)CN(Cc2ccccc2)C1 [Example 25, 2,2,2-trifluoroacetate]
R: CN(c1cc(F)c(S(=O)(=O)Nc2cscn2)cc1Cl)[C@H]1CCN(Cc2ncc3ccccn23)C1 [Example 184]
S: CN(c1cc(F)c(S(=O)(=O)Nc2cscn2)cc1Cl)[C@H]1CCN(Cc2c[nH]c3ccccc23)C1 [Example 182, 2,2,2-trifluoroacetate]
QUERY: Sort low-to-high on IC50, please. Rank the items, then write their labels in that order.
RESULT: Q, S, P, R
(Q: 569 nM, S: 877 nM, P: 2120 nM, R: 5380 nM)

P: Cc1cc(S(=O)(=O)Nc2cscn2)c(F)cc1N(C)[C@H]1CCN(Cc2cscn2)C1 [Example 140]
Q: Cc1cccc(CN2CC[C@H](N(C)c3cc(F)c(S(=O)(=O)Nc4cscn4)cc3Cl)C2)c1F [Example 191]
R: CN(c1cc(F)c(S(=O)(=O)Nc2cscn2)cc1Cl)[C@H]1CCN(Cc2ccnc(C(F)(F)F)c2)C1 [Example 185]
S: CN(c1cc(F)c(S(=O)(=O)Nc2cscn2)cc1Cl)[C@H]1CCN(Cc2cccc(C(C)(C)O)c2)C1 [Example 161, formate]
QUERY: Output the entries ranked by IC50 from maximum down to minimum. Output spec: a listing of the labels in the requested order.
RESULT: R, S, P, Q
(R: 7020 nM, S: 4850 nM, P: 2080 nM, Q: 587 nM)

a: O=S(=O)(Nc1nccs1)c1ccc(OC2CCN(Cc3cccc(F)c3)CC2)c(Cl)c1 [Example 81]
b: Cc1cc(S(=O)(=O)Nc2cscn2)c(F)cc1N(C)[C@H]1CCN([C@H]2CCc3ccccc32)C1 [Example 128]
QUERY: Consider a and b . Which of these has its IC50 at a higher number? Please reply using the label of the selected record.
RESULT: a
(a: 572 nM, b: 185 nM)
